Test: Human HepG2 cell viability assay in 384 well format
Format: toxicity, cell-based
Parameters: dose 125 nL, time 70.5 hour; concentration not given beside the values
Conditions: HepG2 cells, read-out: Inhibition
Overview of recorded cytotoxicity at 70.5 h for various compounds
recorded_endpoint: cytotoxicity at 70.5 h (%)

>>> assay_value("C[C@@H]1CN(C(=O)c2cc(COc3ccc4c(c3)OCO4)[nH]n2)C[C@H](C)O1")
-3.48
>>> assay_value("Cc1ccsc1CN1C[C@@H]2CN(Cc3cccnc3)CCO[C@@H]2C1")
10.4
>>> assay_value("Cc1noc(C)c1CNC(C(=O)N1CCOCC1)C(C)C (stereo unspecified)")
-7.07
>>> assay_value("CCC(C)n1cnc(S(=O)(=O)N(Cc2cccnc2)C(C)C)c1 (stereo unspecified)")
3.97
>>> assay_value("CCC(=O)N1CCC2(CC1)CC(CC(N)=O)c1ccc(F)cc12 (stereo unspecified)")
-7.49
>>> assay_value("CN(C)c1cccc(C2CCN(C3COCC3O)CC2)n1 (stereo unspecified)")
-4.45
>>> assay_value("Cn1c(CS(=O)(=O)Cc2ccc(Cl)cc2)cc(=O)n(C)c1=O")
-6.35
>>> assay_value("Cn1ccnc1SCCNC1CCN(c2nc3ccccc3s2)CC1")
-1.58
>>> assay_value("CCN(C)C(=O)c1ccc(N(C)Cc2cc(-c3ccncc3)no2)nc1")
-2.26
>>> assay_value("Cc1cnc(C(=O)N2C[C@@H](NS(C)(=O)=O)[C@@H]3OCCC[C@@H]32)cn1")
-13.4
>>> assay_value("CC1CCCCN1C(=O)c1cn(-c2ccc(C(F)(F)F)cn2)nn1 (stereo unspecified)")
-6.25
>>> assay_value("c1cnc(C2CCCN2c2cnccn2)cn1 (stereo unspecified)")
6.08
>>> assay_value("O=C(NCCc1nccs1)C(c1ccccc1)n1cnnn1 (stereo unspecified)")
-4.94
>>> assay_value("Cc1nc(C)n(CC2CCCN(Cc3nnc(C(C)(C)C)o3)C2)n1 (stereo unspecified)")
-0.371
>>> assay_value("Cc1c(C(=O)N2CC(=O)N(C)C2)nnn1-c1cccc2cccnc12")
-3.09
>>> assay_value("Cc1ccc2cc(C(=O)N3CCCN(C)CC3)ccc2n1")
-2.19

---

Overview of recorded cytotoxicity at 70.5 h for various compounds
Assay: Human HepG2 cell viability assay in 384 well format
Type: toxicity, cell-based
Set-up: dose 125 nL, time 70.5 hour; concentration not given beside the values
Details: HepG2 cells, read-out: Inhibition
recorded_endpoint: cytotoxicity at 70.5 h (%)

>>> assay_value("CNC(=O)[C@@H](c1ccccc1OC)N1CCC[C@H]1C(=O)NCCN(C)C")
-5.36
>>> assay_value("Cc1nc(CN(Cc2ccncc2)C2CCN(C)CC2)cs1")
8.24
>>> assay_value("Cc1noc(C)c1CN(C)Cc1csc(-c2ccc(F)cc2)n1")
-8.1
>>> assay_value("Cc1nc(CN2CCO[C@H]3[C@@H](Oc4ccccn4)CC[C@@H]32)cs1")
18.6
>>> assay_value("CC(=O)N1CCC2(CN(CC3CCCC3)C2)C1")
-3.32
>>> assay_value("CC(C)CCN1CCC2(CC1)CN(C(=O)c1cnccn1)CCO2")
1.9
>>> assay_value("Cc1ccc(CN2CCC3(CCN(c4cnn(C)c4)C3=O)C2)s1 (configuration not stated)")
13.4
>>> assay_value("CNC(=O)CN1CCO[C@H]2CN(CC3CCOC3)C[C@H]21 (some centres not stated)")
-1.2
>>> assay_value("COCCN(C)C1COC2(CCN(Cc3cccc(F)c3)CC2)C1 (configuration not stated)")
10.1
>>> assay_value("COc1ccccc1CCN1CCCC(CN(C)Cc2cc(C)n[nH]2)C1 (configuration not stated)")
-8.68
>>> assay_value("COC1(CNC(=O)NCCc2ccccc2)CCSC1 (configuration not stated)")
15.9
>>> assay_value("Cc1noc([C@@H]2CCO[C@@H]3CCN(Cc4cccs4)C[C@@H]32)n1")
9.6
>>> assay_value("Cn1nc(CNC(=O)C2COc3ccccc3O2)cc1C1CC1 (configuration not stated)")
6.17
>>> assay_value("Cn1cc(C(=O)N2CCCC(Cc3nccs3)C2)cn1 (configuration not stated)")
-1.09
>>> assay_value("COc1ccc(N2CCC(N(C)C(C)C(=O)N(C)C)CC2)cc1 (configuration not stated)")
15.1
>>> assay_value("N#Cc1cnc2ccccc2c1N1CCN(CCC(=O)O)CC1")
1.24
>>> assay_value("CCc1c(O)nc(SCC(=O)Nc2ccccc2)n(C(C)CC)c1=O (configuration not stated)")
22
